Experiment: Pharmacokinetic assays (plasma and tumor) in nude mice xenografted with MV4-11 cells
Assay type: in vivo, mouse
Experimental conditions: nude, mouse, tumor, po, 3 mg/kg, gilteritinib in tumor; gilteritinib 3, AraC 50, IDR 0.5 mg/kg
Endpoint name: Cmax (ng/g)
// return numeric value only (unit: ng/g, not printed)

Q. What measured Cmax goes with `CCc1nc(C(N)=O)c(Nc2ccc(N3CCC(N4CCN(C)CC4)CC3)c(OC)c2)nc1NC1CCOCC1` ?
A. 437

###

Experiment: Pharmacokinetic assays (plasma and tumor) in nude mice xenografted with MV4-11 cells
Format: in vivo, mouse
Experimental conditions: nude, mouse, plasma, po, 3 mg/kg, gilteritinib in plasma; gilteritinib 3 mg/kg, AraC 0, IDR 0
Procedure: Plasma samples were prepared by centrifugation (n=3 per group; one sample in the combination group was excluded due to improper handling). […] These assays were conducted by Astellas Research Technologies Co., Ltd. under the guidance of Analysis & Pharmacokinetics Research Laboratories, Astellas Pharma, Inc., or by Nemoto Science Co., Ltd. (Ibaraki, Japan). […] The percent tumor regression was calculated using the formula: […]
Endpoint name: Cmax (ng/mL)
Write it as a number; the unit ng/mL goes unstated.

Q. # lookup: Cmax of `CCc1nc(C(N)=O)c(Nc2ccc(N3CCC(N4CCN(C)CC4)CC3)c(OC)c2)nc1NC1CCOCC1`
A. 21.3

###

Experiment: Pharmacokinetic assays (plasma and tumor) in nude mice xenografted with MV4-11 cells
Type: in vivo, mouse
Experimental conditions: nude, mouse, plasma, po, 3 mg/kg, gilteritinib in plasma; gilteritinib 3, AraC 50, IDR 0.5 mg/kg
Procedure: Plasma samples were prepared by centrifugation (n=3 per group; one sample in the combination group was excluded due to improper handling). […] These assays were conducted by Astellas Research Technologies Co., Ltd. under the guidance of Analysis & Pharmacokinetics Research Laboratories, Astellas Pharma, Inc., or by Nemoto Science Co., Ltd. (Ibaraki, Japan). […] The percent tumor regression was calculated using the formula: […]
Endpoint name: Tmax (h)
Supply the numeric figure in h, leaving out any unit text.

Q. Which Tmax is listed for `CCc1nc(C(N)=O)c(Nc2ccc(N3CCC(N4CCN(C)CC4)CC3)c(OC)c2)nc1NC1CCOCC1` ?
A. 2

###

Experiment: Pharmacokinetic assays (plasma and tumor) in nude mice xenografted with MV4-11 cells
Format: in vivo, mouse
Experimental conditions: nude, mouse, plasma, iv, azacitidine in plasma; doses gilteritinib 3, azacitidine 0 mg/kg
Endpoint name: Tmax (min)
Write the value in min as a bare number.

Q. Reported Tmax, compound Nc1ncn([C@@H]2O[C@H](CO)[C@@H](O)[C@H]2O)c(=O)n1 [Aza, Azacitidine] : ____
A. 4.8

###

Experiment: Pharmacokinetic assays (plasma and tumor) in nude mice xenografted with MV4-11 cells
Format: in vivo, mouse
Experimental conditions: nude, mouse, tumor, iv, azacitidine in tumor
Endpoint name: Cmax (ng/g)
A number alone suffices; assume ng/g.

Q. Look at this compound and give its reported Cmax. `Nc1ncn([C@@H]2O[C@H](CO)[C@@H](O)[C@H]2O)c(=O)n1`
A. 61.3
